condition-parameters: 303.15 K; 101 kPa; Liquid; Linear variable-path acoustic interferometer
± gives the expanded uncertainty stated by the source.
For each of the compounds below, state its speed of sound.
Returns: string containing the number followed by the unit.

# annotated cases, reported speed of sound shown
compound	speed of sound
CCC(=O)CC [pentan-3-one]	1197 ± 8 m/s
O=S1(=O)CCCC1 [sulfolane]	1588 ± 10 m/s
CCC(C)=O [butanone]	1178 ± 7 m/s
CC(=O)CC(C)C [4-methylpentan-2-one]	1175 ± 7 m/s

Field: next compound
Q. Which speed of sound value belongs to CCCC(C)=O [pentan-2-one] ?
A. 1192 ± 7 m/s

Provenance of the data: the NIST ThermoML archive (doi:10.1021/je900056u)
